target: KCNQ1/minK (Homo sapiens, UniProt P51787+Q8N4C8); test: Inhibition of KCNQ1/minK (unknown origin) at 30 uM; format: protein-complex assay
measured.endpoint: inhibition at 30 µM

Look up inhibition at 30 µM of `COc1cc(C#N)ccc1S(=O)(=O)Nc1ccc2c(c1)cc(C)c(=O)n2C` and report it.
< 40%

###

target: Bromodomain-containing protein 4 (Homo sapiens); assay: Inhibition of human BRD4 bromodomain 1 (unknown origin) by Alexa Fluor 647-JQ1 probe-based fluoresence polarization competition assay
pIC50: −log10 of the molar value.
measured.endpoint: pIC50

Give the value of pIC50 reported for the following: `COc1cc(C#N)ccc1S(=O)(=O)Nc1ccc2c(c1)cc(C)c(=O)n2C`
< 4.48

###

molecular target: Bromodomain-containing protein 4 (Homo sapiens, UniProt O60885); assay: Inhibition of human BRD4 bromodomain 1 (unknown origin) using [H-YSGRGKacGGKacGLGKacGGAKacRHRK(Biotin)-OH peptide as substrate after 30 mins by alphaScreen assay
pIC50: −log10 of the molar value.
measured.endpoint: pIC50

# return pIC50 of `COc1cc(C#N)ccc1S(=O)(=O)Nc1ccc2c(c1)cc(C)c(=O)n2C` (system: Bromodomain-containing protein 4 (Homo sapiens, UniProt O60885))
< 5.00

###

molecular target: Transcription intermediary factor 1-alpha (Homo sapiens); test: Inhibition of TRIM24 (unknown origin) using tetra-acetylated histone 4/ mono-acetylated K14 histone 3 as substrate after 30 mins by alphascreen assay
Sequence (O15164 whole entry): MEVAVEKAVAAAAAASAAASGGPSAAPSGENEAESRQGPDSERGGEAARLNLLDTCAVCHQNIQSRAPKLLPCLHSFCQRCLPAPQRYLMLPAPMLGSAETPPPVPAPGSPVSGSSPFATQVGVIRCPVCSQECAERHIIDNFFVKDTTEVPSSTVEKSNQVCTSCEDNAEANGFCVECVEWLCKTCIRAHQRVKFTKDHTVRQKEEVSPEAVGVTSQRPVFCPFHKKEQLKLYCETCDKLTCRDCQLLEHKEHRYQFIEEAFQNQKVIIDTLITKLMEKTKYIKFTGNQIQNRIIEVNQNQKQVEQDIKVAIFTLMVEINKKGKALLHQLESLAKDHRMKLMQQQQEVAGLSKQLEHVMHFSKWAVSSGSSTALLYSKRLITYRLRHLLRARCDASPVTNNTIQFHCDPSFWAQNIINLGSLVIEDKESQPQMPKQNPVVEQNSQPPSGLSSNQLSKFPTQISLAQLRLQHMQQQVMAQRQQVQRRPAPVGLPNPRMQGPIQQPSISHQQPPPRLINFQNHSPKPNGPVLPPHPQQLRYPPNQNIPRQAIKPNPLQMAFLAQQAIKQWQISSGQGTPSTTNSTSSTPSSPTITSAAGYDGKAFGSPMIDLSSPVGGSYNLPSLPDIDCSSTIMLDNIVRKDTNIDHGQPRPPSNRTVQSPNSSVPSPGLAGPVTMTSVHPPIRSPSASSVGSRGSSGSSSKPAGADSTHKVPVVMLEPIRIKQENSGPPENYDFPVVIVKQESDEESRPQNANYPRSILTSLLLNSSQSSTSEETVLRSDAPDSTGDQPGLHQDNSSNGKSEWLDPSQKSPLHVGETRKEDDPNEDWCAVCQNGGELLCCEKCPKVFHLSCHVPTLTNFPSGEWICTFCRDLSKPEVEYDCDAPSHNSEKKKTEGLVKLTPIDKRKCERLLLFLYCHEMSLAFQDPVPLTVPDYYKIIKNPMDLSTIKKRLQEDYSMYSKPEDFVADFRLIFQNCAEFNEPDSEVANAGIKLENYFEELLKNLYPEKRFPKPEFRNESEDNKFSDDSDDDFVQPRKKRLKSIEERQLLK
pIC50: −log10 of the molar value.
measured.endpoint: pIC50

Give pIC50 only, for `COc1cc(C#N)ccc1S(=O)(=O)Nc1ccc2c(c1)cc(C)c(=O)n2C` , using Transcription intermediary factor 1-alpha (Homo sapiens) data.
< 5.00

###

assay: Oral bioavailability in CD1 mouse at 3 mg/kg by UPLC-MS/MS analysis; assay type: ADME, organism-based; conditions: in vivo
measured.endpoint: bioavailability (%)
Expressed in %, but write only the number.

Quickly give me recorded bioavailability for `COc1cc(C#N)ccc1S(=O)(=O)Nc1ccc2c(c1)cc(C)c(=O)n2C`
29

###

biological target: Bromodomain-containing protein 1 (Homo sapiens, UniProt O95696); experiment: Inhibition of His-tagged BRPF2 (unknown origin) after 30 mins by alphaScreen assay
Sequence (O95696 whole entry): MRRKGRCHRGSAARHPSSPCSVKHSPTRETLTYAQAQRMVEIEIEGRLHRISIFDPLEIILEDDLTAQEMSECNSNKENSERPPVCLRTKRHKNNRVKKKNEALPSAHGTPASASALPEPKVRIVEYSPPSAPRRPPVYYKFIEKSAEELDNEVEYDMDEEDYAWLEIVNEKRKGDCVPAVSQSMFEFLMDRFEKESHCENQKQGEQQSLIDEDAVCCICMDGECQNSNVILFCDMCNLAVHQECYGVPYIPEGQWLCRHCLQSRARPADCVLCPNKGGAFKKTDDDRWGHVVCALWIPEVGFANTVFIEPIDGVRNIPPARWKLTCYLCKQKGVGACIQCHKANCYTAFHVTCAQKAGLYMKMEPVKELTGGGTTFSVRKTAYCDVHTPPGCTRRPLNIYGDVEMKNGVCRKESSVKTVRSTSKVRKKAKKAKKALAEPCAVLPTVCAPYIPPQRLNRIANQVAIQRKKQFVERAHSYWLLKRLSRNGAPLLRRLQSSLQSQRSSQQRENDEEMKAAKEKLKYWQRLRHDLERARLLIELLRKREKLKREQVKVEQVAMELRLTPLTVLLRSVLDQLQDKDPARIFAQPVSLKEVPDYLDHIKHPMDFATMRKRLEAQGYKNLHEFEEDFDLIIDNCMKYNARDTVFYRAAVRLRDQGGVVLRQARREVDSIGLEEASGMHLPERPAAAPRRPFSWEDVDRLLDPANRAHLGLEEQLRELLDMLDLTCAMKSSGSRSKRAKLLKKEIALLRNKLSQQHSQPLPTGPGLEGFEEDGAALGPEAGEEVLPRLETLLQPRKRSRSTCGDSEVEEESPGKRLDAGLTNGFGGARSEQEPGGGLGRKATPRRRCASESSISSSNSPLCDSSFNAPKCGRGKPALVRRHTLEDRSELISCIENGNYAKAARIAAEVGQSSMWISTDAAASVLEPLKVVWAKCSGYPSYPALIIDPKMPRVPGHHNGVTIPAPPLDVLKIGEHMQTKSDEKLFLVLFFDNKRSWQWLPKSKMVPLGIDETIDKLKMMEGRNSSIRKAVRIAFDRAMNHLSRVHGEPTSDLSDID
measured.endpoint: pIC50
Recall that pIC50 is obtained by taking minus log10 of the concentration measured in molar.

For the compound `COc1cc(C#N)ccc1S(=O)(=O)Nc1ccc2c(c1)cc(C)c(=O)n2C` , give its measured pIC50 value.
6.21

###

target: ATPase family AAA domain-containing protein 2B (Homo sapiens, UniProt Q9ULI0); experiment: Inhibition of human ATAD2B (955 to 1082 residues) expressed in Escherichia coli BL21 after 1 hr by BROMOscan assay
Sequence (Q9ULI0 whole entry, the tested form may be a part): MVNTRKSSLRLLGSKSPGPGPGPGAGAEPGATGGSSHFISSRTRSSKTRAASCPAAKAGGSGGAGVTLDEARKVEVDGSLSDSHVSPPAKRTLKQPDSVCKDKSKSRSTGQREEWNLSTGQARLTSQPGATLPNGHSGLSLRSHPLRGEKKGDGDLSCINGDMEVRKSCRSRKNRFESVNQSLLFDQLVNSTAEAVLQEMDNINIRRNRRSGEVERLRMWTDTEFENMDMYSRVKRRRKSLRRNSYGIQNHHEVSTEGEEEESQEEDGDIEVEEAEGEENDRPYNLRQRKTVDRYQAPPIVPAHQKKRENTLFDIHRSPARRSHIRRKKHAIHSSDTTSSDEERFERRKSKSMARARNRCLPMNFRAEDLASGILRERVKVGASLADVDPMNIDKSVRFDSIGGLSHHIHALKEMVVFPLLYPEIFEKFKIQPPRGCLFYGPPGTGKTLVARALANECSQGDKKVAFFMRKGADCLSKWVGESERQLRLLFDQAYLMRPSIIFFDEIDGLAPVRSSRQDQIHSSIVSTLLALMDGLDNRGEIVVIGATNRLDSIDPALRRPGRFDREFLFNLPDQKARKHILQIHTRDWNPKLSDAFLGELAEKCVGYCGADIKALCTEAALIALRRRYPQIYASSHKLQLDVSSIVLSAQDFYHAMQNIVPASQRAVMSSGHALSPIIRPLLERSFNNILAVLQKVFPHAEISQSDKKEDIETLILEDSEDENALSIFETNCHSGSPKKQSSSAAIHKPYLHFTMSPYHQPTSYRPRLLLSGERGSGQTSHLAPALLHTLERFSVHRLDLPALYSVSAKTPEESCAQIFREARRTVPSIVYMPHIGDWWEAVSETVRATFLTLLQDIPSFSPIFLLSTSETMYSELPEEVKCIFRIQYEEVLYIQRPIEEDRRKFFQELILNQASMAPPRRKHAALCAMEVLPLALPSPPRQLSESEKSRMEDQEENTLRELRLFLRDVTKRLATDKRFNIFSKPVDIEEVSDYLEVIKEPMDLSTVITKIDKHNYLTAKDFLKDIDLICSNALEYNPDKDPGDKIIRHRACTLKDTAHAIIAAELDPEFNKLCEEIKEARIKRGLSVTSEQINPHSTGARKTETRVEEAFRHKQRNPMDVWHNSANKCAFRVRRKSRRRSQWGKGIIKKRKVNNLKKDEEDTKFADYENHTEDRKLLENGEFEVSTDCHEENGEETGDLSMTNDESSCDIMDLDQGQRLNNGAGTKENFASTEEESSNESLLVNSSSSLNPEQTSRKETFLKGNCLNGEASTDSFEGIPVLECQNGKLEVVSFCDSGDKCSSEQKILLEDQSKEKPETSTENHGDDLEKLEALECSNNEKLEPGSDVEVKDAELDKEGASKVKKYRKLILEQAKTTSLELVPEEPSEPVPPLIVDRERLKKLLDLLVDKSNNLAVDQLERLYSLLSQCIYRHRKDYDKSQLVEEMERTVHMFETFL
pIC50: −log10 of the molar value.
measured.endpoint: pIC50

Consider the compound `COc1cc(C#N)ccc1S(=O)(=O)Nc1ccc2c(c1)cc(C)c(=O)n2C` and give its recorded pIC50.
< 4.00

###

target: Kir2.1 (Homo sapiens, UniProt P63252); test: Inhibition of Kir2.1 (unknown origin) at 30 uM
Sequence (P63252 whole entry): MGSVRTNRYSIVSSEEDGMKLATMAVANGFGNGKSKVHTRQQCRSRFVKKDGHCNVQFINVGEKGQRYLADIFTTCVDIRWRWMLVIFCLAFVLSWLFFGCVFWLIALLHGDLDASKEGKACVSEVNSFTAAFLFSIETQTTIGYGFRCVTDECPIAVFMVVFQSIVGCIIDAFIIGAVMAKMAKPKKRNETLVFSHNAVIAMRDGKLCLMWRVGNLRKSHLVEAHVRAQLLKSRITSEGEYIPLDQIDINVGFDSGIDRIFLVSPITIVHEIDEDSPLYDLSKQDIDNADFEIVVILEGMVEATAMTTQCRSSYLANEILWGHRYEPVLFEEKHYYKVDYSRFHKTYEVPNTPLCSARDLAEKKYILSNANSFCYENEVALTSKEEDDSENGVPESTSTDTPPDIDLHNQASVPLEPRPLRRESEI
measured.endpoint: inhibition at 30 µM

# return recorded inhibition at 30 µM for entry `COc1cc(C#N)ccc1S(=O)(=O)Nc1ccc2c(c1)cc(C)c(=O)n2C`
< 40%

###

For each entry below, report its pIC50 value.
biological target: Bromodomain-containing protein 4 (Homo sapiens, UniProt O60885); assay: Inhibition of human BRD4 isoform long bromodomain 1 (44 to 168 residues) expressed in Escherichia coli BL21 after 1 hr by BROMOscan assay
The quantity pIC50 is defined as the negative base-10 logarithm of the molar concentration.

Answer with the recorded pIC50 for the molecule listed here: `Cn1c(=O)ccc2cc(S(=O)(=O)Nc3ccccc3)ccc21`
4.43

For the molecule `COc1cc(C#N)ccc1S(=O)(=O)Nc1ccc2c(c1)cc(C)c(=O)n2C` , give its measured pIC50 value.
5.43

Report measured pIC50; entry is `COc1cc2c(cc1NS(=O)(=O)c1ccc(C#N)cc1OC)cc(C)c(=O)n2C`
5.77
